- SYSTEM_TESTED: Vascular endothelial growth factor receptor 2 (Homo sapiens)
- Sequence (P35968 whole entry): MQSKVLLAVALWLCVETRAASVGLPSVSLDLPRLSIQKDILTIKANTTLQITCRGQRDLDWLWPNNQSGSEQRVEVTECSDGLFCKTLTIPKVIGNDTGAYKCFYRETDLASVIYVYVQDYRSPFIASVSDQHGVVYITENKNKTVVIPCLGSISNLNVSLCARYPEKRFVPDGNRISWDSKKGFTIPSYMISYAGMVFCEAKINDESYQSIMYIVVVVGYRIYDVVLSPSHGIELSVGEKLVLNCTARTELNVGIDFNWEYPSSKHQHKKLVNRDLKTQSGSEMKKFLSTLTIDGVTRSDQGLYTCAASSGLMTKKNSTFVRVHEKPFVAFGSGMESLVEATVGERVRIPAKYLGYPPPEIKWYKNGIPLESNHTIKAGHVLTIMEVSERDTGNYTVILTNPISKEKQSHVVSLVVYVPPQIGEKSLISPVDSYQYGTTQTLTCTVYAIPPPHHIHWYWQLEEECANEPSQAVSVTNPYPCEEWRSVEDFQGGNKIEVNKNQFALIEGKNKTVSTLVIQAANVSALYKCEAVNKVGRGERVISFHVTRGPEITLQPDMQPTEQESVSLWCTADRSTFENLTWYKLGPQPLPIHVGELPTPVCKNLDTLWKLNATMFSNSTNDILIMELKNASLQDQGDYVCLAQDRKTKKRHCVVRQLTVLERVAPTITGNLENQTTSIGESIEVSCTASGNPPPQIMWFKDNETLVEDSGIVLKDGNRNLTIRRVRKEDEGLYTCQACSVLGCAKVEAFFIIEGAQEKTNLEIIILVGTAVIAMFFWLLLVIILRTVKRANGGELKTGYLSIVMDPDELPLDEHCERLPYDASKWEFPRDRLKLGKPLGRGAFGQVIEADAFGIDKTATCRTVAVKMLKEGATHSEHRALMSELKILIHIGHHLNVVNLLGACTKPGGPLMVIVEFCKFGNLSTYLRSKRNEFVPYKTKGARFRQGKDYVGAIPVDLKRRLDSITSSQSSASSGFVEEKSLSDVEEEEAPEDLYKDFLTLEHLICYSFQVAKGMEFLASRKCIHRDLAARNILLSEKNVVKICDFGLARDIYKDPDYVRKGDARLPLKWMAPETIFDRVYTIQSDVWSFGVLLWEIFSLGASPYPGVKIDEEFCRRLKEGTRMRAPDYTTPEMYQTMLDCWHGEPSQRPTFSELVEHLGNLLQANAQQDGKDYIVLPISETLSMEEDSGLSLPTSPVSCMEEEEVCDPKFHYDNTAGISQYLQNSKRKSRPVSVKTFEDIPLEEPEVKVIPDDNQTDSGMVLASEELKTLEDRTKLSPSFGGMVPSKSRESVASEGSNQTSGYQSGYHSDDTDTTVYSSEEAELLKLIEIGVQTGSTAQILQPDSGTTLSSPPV
- EXPERIMENT_NOTES: Inhibition of KDR by HTRF analysis in presence of 1 mM ATP
pIC50: −log10 of the molar value.
PROPERTY_MEASURED: pIC50

> print(dat)
                             chemical.string  property.measured  reported.relation  obs.value
 1  Cn1cc(Nc2ncc(C(F)(F)F)c(N[C@H]3[C@@H](C(=O)NC4CC4)[C@@H]4C=C[C@H]3C4)n2)cn1              pIC50                  =       6.53
 2  Cn1cc(Nc2ncc([N+](=O)[O-])c(N[C@H]3[C@@H](C(N)=O)[C@@H]4C=C[C@H]3C4)n2)cn1              pIC50                  =       7.30
 3  Cc1cnc(Nc2cnn(C)c2)nc1N[C@H]1[C@@H](C(N)=O)[C@@H]2C=C[C@H]1C2              pIC50                  =       6.33
 4  Cn1cc(Nc2ncc(C(N)=O)c(N[C@H]3[C@@H](C(N)=O)[C@@H]4C=C[C@H]3C4)n2)cn1              pIC50                  =       5.81
 5  Cn1cc(Nc2ncc(Cl)c(N[C@@H]3[C@H]4CC[C@H](C4)[C@@H]3C(N)=O)n2)cn1              pIC50                  =       7.72
 6  NC(=O)[C@@H]1[C@H](Nc2nc(Nc3cnn(CCN4CCOCC4)c3)ncc2Cl)[C@H]2C=C[C@@H]1C2              pIC50                  =       8.05
 7  Cn1cc(Nc2ncc(C(F)(F)F)c(Nc3ccccc3C(N)=O)n2)cn1              pIC50                  =       6.37
 8  NC(=O)[C@@H]1[C@H](Nc2nc(Nc3cnn(CCO)c3)ncc2Cl)[C@H]2C=C[C@@H]1C2              pIC50                  =       8.22
 9  Cn1cc(Nc2ncc(C(F)(F)F)c(N[C@H]3[C@@H](C(N)=O)C[C@H]4C[C@@H]3C4(C)C)n2)cn1              pIC50                  =       6.58
10  Cn1cc(Nc2ncc(C(F)(F)F)c(N[C@H]3C[C@@H]4CC[C@H]3C4)n2)cn1              pIC50                  =       6.08
11  Cn1cc(Nc2ncc(C(F)(F)F)c(N[C@H]3[C@@H](C(N)=O)[C@@H]4C=C[C@H]3C4)n2)cn1              pIC50                  =       7.92
12  Cn1cc(Nc2ncc(C(F)(F)F)c(N[C@H]3[C@@H](C(=O)NCCO)[C@@H]4C=C[C@H]3C4)n2)cn1              pIC50                  =       6.58
13  Cn1cc(Nc2ncc(Cl)c(N[C@@H]3CCCC[C@@H]3C(N)=O)n2)cn1              pIC50                  =       6.77
14  NC(=O)Cn1cc(Nc2ncc(Cl)c(N[C@H]3[C@@H](C(N)=O)[C@@H]4C=C[C@H]3C4)n2)cn1              pIC50                  =       7.74
15  Cn1cc(Nc2nccc(N[C@H]3[C@@H](C(N)=O)[C@@H]4C=C[C@H]3C4)n2)cn1              pIC50                  <       4.92
16  NC(=O)[C@@H]1[C@H](Nc2nc(Nc3cnn(C[C@H]4CCCN4)c3)ncc2Cl)[C@H]2C=C[C@@H]1C2              pIC50                  =       7.82
17  Cn1cc(Nc2ncc(F)c(N[C@H]3[C@@H](C(N)=O)[C@@H]4C=C[C@H]3C4)n2)cn1              pIC50                  =       6.48
18  NC(=O)[C@@H]1[C@H](Nc2nc(Nc3cnn(C4CCNCC4)c3)ncc2Cl)[C@H]2C=C[C@@H]1C2              pIC50                  =       8.70
19  Cn1cc(Nc2ncc(Cl)c(N[C@H]3[C@@H](C(N)=O)[C@@H]4CC[C@H]3O4)n2)cn1              pIC50                  =       6.16
